System: A-431
Protocol Text: Antiproliferative activity against human A431 cells at 10 ug/ml after 48 hrs by MTT assay
Type: cell-based
Measurement Context: a-431, 48 h

{"columns": ["Mol Smiles", "Activity, %"],
 "data": [
  ["O=C1CSc2ccccc2N1Cc1cn(Cc2ccc(F)cc2)nn1", 31.1],
  ["O=C1CSc2ccccc2N1Cc1cn(-c2ccc([N+](=O)[O-])cc2)nn1", 0],
  ["O=C1CSc2ccccc2N1Cc1cn(Cc2ccccc2)nn1", -37.2],
  ["O=C1CSc2ccccc2N1Cc1cn(-c2cccc([N+](=O)[O-])c2)nn1", 25.4]
]}

Attribution: ChEMBL document CHEMBL3763138
